- Test system: bovine artery endotheliocyte (BAE)
- experimental-protocol: Inhibition on the migration of bovine artery endotheliocyte (vascularization of tumor)
- Assay type: cell-based
- condition: at the 50% inhibitory concentration (IC50), 24 hours
- Protocol: Inhibition on the vascularization of tumor (Test for the inhibition on the migration) Bovine artery endotheliocyte (BAE) was used for this experiment. BAE (5×10^3 cells) was cultured in 6-well plate for 24 hours and cells attached to the plate were detached by a razor. […] After completing the cultivation, cells were fixed with methanol, stained with Giemsa method and counted the cells migrated from the detached line under microscope.
Measured Migration-inhibition (% control), IC50 of individual entries
Hi! Could you send only the number? It should be in % control, unit omitted.

CC(C)=CCC[C@](C)(O[C@@H]1O[C@H](CO[C@@H]2OC[C@H](O)[C@H](O)[C@H]2O)[C@@H](O)[C@H](O)[C@H]1O)[C@H]1CC[C@]2(C)[C@@H]1[C@H](O)C[C@@H]1[C@@]3(C)CC[C@H](O)C(C)(C)[C@@H]3CC[C@]12C = 28.9

Okay, now this compound:
So what does the record say about Migration-inhibition (% control), IC50 for CC(C)=CCC[C@](C)(O[C@@H]1O[C@H](CO)[C@@H](O)[C@H](O)[C@H]1O)[C@H]1CC[C@]2(C)[C@@H]1[C@H](O)C[C@@H]1[C@@]3(C)CC[C@H](O)C(C)(C)[C@@H]3CC[C@]12C ?
43.2

----------
- System: leukemia cell line (P388)
- experimental-protocol: Antitumor activity of mouse spleen lymphocytes on leukemia cell line P388 (MTT)
- Format: cell-based, mice
- condition: P388, 2.5 μM for 16 hours (Compound K 1.56, Compound Y 1.86, Ginsenoside Mc 1.86, 20(S)-protopanaxatriol 1.19 μg/ml), control 31.3%
measurement-type: activity at 2.5 µM
I'd appreciate it if you wrote the number followed by its unit.

CC(C)=CCC[C@](C)(O[C@@H]1O[C@H](CO)[C@@H](O)[C@H](O)[C@H]1O)[C@H]1CC[C@]2(C)[C@@H]1[C@H](O)C[C@@H]1[C@@]3(C)CC[C@H](O)C(C)(C)[C@@H]3CC[C@]12C [Compound K] = 51.5%

activity at 2.5 µM for CC(C)=CCC[C@](C)(O)[C@H]1CC[C@]2(C)[C@@H]1[C@H](O)C[C@@H]1[C@@]3(C)CC[C@H](O)C(C)(C)[C@@H]3[C@@H](O)C[C@]12C [20(S)-protopanaxatriol] ?
82.4%

Recorded activity at 2.5 µM of CC(C)=CCC[C@](C)(O[C@@H]1O[C@H](CO[C@@H]2O[C@@H](CO)[C@H](O)[C@H]2O)[C@@H](O)[C@H](O)[C@H]1O)[C@H]1CC[C@]2(C)[C@@H]1[C@H](O)C[C@@H]1[C@@]3(C)CC[C@H](O)C(C)(C)[C@@H]3CC[C@]12C [Ginsenoside Mc] , please.
63.3%

So what does the record say about activity at 2.5 µM for CC(C)=CCC[C@](C)(O[C@@H]1O[C@H](CO[C@@H]2OC[C@H](O)[C@H](O)[C@H]2O)[C@@H](O)[C@H](O)[C@H]1O)[C@H]1CC[C@]2(C)[C@@H]1[C@H](O)C[C@@H]1[C@@]3(C)CC[C@H](O)C(C)(C)[C@@H]3CC[C@]12C [Compound Y] ?
56.6%

----------
- Test system: leukemia cell line (K562)
- experimental-protocol: Inhibition on the proliferation of leukemia cell line K562, MTT
- Assay type: cell-based
- condition: Homo sapiens; K562, 24 hours, MTT
Parameter: IC50. Scope: all listed entries.
Be sure to follow the number with its unit.

In the examples that follow, each entry is paired with its recorded IC50.
CC(C)=CCC[C@](C)(O[C@@H]1O[C@H](CO[C@@H]2OC[C@H](O)[C@H](O)[C@H]2O)[C@@H](O)[C@H](O)[C@H]1O)[C@H]1CC[C@]2(C)[C@@H]1[C@H](O)C[C@@H]1[C@@]3(C)CC[C@H](O)C(C)(C)[C@@H]3CC[C@]12C = 78 µM
CC(C)=CCC[C@](C)(O[C@@H]1O[C@H](CO)[C@@H](O)[C@H](O)[C@H]1O)[C@H]1CC[C@]2(C)[C@@H]1[C@H](O)C[C@@H]1[C@@]3(C)CC[C@H](O)C(C)(C)[C@@H]3CC[C@]12C = 26 µM
CC(C)=CCC[C@](C)(O)[C@H]1CC[C@]2(C)[C@@H]1[C@H](O)C[C@@H]1[C@@]3(C)CC[C@H](O)C(C)(C)[C@@H]3[C@@H](O)C[C@]12C [20(S)-protopanaxatriol] = 49 µM

Look up IC50 for this compound: CC(C)=CCC[C@](C)(O[C@@H]1O[C@H](CO[C@@H]2O[C@@H](CO)[C@H](O)[C@H]2O)[C@@H](O)[C@H](O)[C@H]1O)[C@H]1CC[C@]2(C)[C@@H]1[C@H](O)C[C@@H]1[C@@]3(C)CC[C@H](O)C(C)(C)[C@@H]3CC[C@]12C [Ginsenoside Mc]
480 µM

----------
- Tested on: bovine artery endotheliocyte (BAE)
- experimental-protocol: Inhibition on the proliferation of bovine artery endotheliocyte (BAE), MTT
- Format: cell-based
- condition: Bos taurus; BAE, 72 hours, MTT
measurement-type: IC50 (µM)
Please state the figure in µM; there is no need to write the unit.

CC(C)=CCC[C@](C)(O[C@@H]1O[C@H](CO)[C@@H](O)[C@H](O)[C@H]1O)[C@H]1CC[C@]2(C)[C@@H]1[C@H](O)C[C@@H]1[C@@]3(C)CC[C@H](O)C(C)(C)[C@@H]3CC[C@]12C = 28

What IC50 value was documented for this molecule, CC(C)=CCC[C@](C)(O[C@@H]1O[C@H](CO[C@@H]2O[C@@H](CO)[C@H](O)[C@H]2O)[C@@H](O)[C@H](O)[C@H]1O)[C@H]1CC[C@]2(C)[C@@H]1[C@H](O)C[C@@H]1[C@@]3(C)CC[C@H](O)C(C)(C)[C@@H]3CC[C@]12C [Ginsenoside Mc] ?
26

// returns reported IC50 for input CC(C)=CCC[C@](C)(O)[C@H]1CC[C@]2(C)[C@@H]1[C@H](O)C[C@@H]1[C@@]3(C)CC[C@H](O)C(C)(C)[C@@H]3[C@@H](O)C[C@]12C [20(S)-protopanaxatriol]
36

GET /values?readout=IC50&item= CC(C)=CCC[C@](C)(O[C@@H]1O[C@H](CO[C@@H]2OC[C@H](O)[C@H](O)[C@H]2O)[C@@H](O)[C@H](O)[C@H]1O)[C@H]1CC[C@]2(C)[C@@H]1[C@H](O)C[C@@H]1[C@@]3(C)CC[C@H](O)C(C)(C)[C@@H]3CC[C@]12C
32

----------
- System: Human adenosarcoma tissue cell (HT1080)
- experimental-protocol: Inhibition on the extravasation of basement membrane (haptoinvasion, matrigel/FN filter)
- Format: cell-based
- condition: Homo sapiens, HT-1080; 10 μM; read-out: Inhibition rate (%)
measurement-type: inhibition at 10 µM (%)
Report only the number, with the unit % understood.

Worked examples, 3 compounds total:
CC(C)=CCC[C@](C)(O[C@@H]1O[C@H](CO)[C@@H](O)[C@H](O)[C@H]1O)[C@H]1CC[C@]2(C)[C@@H]1[C@H](O)C[C@@H]1[C@@]3(C)CC[C@H](O)C(C)(C)[C@@H]3CC[C@]12C = 62
CC(C)=CCC[C@](C)(O[C@@H]1O[C@H](CO[C@@H]2OC[C@H](O)[C@H](O)[C@H]2O)[C@@H](O)[C@H](O)[C@H]1O)[C@H]1CC[C@]2(C)[C@@H]1[C@H](O)C[C@@H]1[C@@]3(C)CC[C@H](O)C(C)(C)[C@@H]3CC[C@]12C = 21
CC(C)=CCC[C@](C)(O)[C@H]1CC[C@]2(C)[C@@H]1[C@H](O)C[C@@H]1[C@@]3(C)CC[C@H](O)C(C)(C)[C@@H]3[C@@H](O)C[C@]12C [20(S)-protopanaxatriol] = 4

Now look at this one.
Recorded inhibition at 10 µM for CC(C)=CCC[C@](C)(O[C@@H]1O[C@H](CO[C@@H]2O[C@@H](CO)[C@H](O)[C@H]2O)[C@@H](O)[C@H](O)[C@H]1O)[C@H]1CC[C@]2(C)[C@@H]1[C@H](O)C[C@@H]1[C@@]3(C)CC[C@H](O)C(C)(C)[C@@H]3CC[C@]12C [Ginsenoside Mc] with Human adenosarcoma tissue cell (HT1080), please?
62
